- test target: acetylcholine muscarinic M1 receptor (CHOnfat/hM1 cells) (Homo sapiens)
- Construct: Geneticin-selected)
- test name: muscarinic M1 FLIPR intracellular calcium assay (positive allosteric modulation)
- test context: FLIPR Ca2+, 4 min preincubation, then EC20 acetylcholine (3 nM final), read-out: IP Value (inflection point)
readout label: EC50 (nM)

molecule: Cc1ccc(-c2ccc(Cn3cc4c(=O)n(-c5ccccc5F)nc-4c4ccccc43)nc2)cn1 [Example 258]
readout label: EC50
endpoint unit: nM
quantitative result: 246
--
molecule: O=c1c2cn(Cc3ccc(-c4ncco4)cc3)c3ccccc3c-2nn1-c1ccccc1F [Example 381]
readout label: EC50
endpoint unit: nM
quantitative result: 900
--
molecule: O=C1CCCCC1n1nc2c3ccccc3n(Cc3ccc(-n4cccn4)cc3)cc-2c1=O (racemic) [Example 720]
readout label: EC50
endpoint unit: nM
quantitative result: 135
--
molecule: N#Cc1cccc(F)c1-n1nc2c3ccccc3n(Cc3ccc(-n4cccn4)cc3)cc-2c1=O [Example 667]
readout label: EC50
endpoint unit: nM
quantitative result: 22
--
molecule: O=c1c2cn(Cc3nccc4ccccc34)c3ccccc3c-2nn1-c1ccccc1F [Example 128]
readout label: EC50
endpoint unit: nM
quantitative result: 1290
--
molecule: Cn1cnc(-n2nc3c4c(F)ccc(F)c4n(Cc4ccc(-n5cccn5)cc4)cc-3c2=O)c1 [Example 24]
readout label: EC50
endpoint unit: nM
quantitative result: 103
--
molecule: CC(C)Cn1cc(-c2ccc(Cn3cc4c(=O)n(-c5ccccc5F)nc-4c4ccccc43)cn2)cn1 [Example 242]
readout label: EC50
endpoint unit: nM
quantitative result: 159
--
molecule: O=c1c2cn(Cc3ccc(-n4cccn4)cc3)c3ccccc3c-2nn1-c1ccccc1CN1CCCC1 [Example 648]
readout label: EC50
endpoint unit: nM
quantitative result: 179

* * *

Each entry below lists one item and its recorded pEC50 value.
- test target: acetylcholine muscarinic M1 receptor (CHOnfat/hM1 cells) (Homo sapiens, UniProt P11229)
- Construct: Geneticin-selected)
- Sequence (P11229 1-460): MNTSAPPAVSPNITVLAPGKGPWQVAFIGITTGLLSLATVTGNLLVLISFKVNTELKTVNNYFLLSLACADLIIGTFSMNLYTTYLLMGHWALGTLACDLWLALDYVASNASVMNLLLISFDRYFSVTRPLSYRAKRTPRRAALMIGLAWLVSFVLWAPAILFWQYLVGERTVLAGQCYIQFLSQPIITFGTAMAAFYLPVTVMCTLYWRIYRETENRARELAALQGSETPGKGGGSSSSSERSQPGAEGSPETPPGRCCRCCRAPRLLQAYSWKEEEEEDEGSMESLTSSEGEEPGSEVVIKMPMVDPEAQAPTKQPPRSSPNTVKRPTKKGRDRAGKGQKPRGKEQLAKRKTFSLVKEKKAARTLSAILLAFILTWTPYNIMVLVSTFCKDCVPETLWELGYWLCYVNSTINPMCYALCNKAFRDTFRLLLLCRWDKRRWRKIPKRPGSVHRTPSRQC
- test name: muscarinic M1 FLIPR intracellular calcium assay (positive allosteric modulation)
- test context: FLIPR Ca2+, 4 min preincubation, then EC20 acetylcholine (3 nM final), read-out: IP Value (inflection point)
pEC50: −log10 of the molar value.

compound: O=c1c2cn(Cc3ccc(-c4ccc5[nH]ccc5c4)cc3F)c3ccccc3c-2nn1-c1ccccc1F
pEC50: 5.78

compound: CCNCc1ccccc1-n1nc2c3c(F)ccc(F)c3n(Cc3ccc(-n4cccn4)cc3)cc-2c1=O
pEC50: 6.91

compound: O=c1c2cn(Cc3ccc(-n4cncn4)cc3F)c3c(F)ccc(F)c3c-2nn1-c1ccccc1F
pEC50: 6.46

compound: CNC(=O)c1ccccc1-n1nc2c3ccccc3n(Cc3ccc(-n4cccn4)cc3)cc-2c1=O
pEC50: 5.31

compound: O=c1c2cn(Cc3ccc(-n4cccn4)cc3)c3ccccc3c-2nn1[C@H]1CCCC[C@@H]1O (racemic)
pEC50: 7.48

compound: O=c1c2cn(Cc3ccc(-n4cccn4)cc3)c3c(F)ccc(F)c3c-2nn1-c1ccccc1CO
pEC50: 6.69

compound: O=c1c2cn(Cc3ccc(-n4cccn4)cc3)c3ccccc3c-2nn1C1CCOCC1
pEC50: 6.44

compound: O=C1CCc2cccc(-n3nc4c5ccccc5n(Cc5ccc(-n6cccn6)cc5)cc-4c3=O)c21
pEC50: 8.32

compound: O=c1c2cn(Cc3ccc4[nH]ccc4c3)c3ccccc3c-2nn1-c1ccccc1F
pEC50: 7.05

compound: O=c1c2cn(Cc3c(F)cccc3F)c3ccccc3c-2nn1-c1ccccc1F
pEC50: 6.08
